These entries and their values trace back to PubChem BioAssay (NCATS).

- METHOD: NFAT Signaling Pathway (AID 444);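 also: carbachol stimulus at about its EC50 of 1 µM final; % is scaled to controls: 0 for no effect and ±100 for the full control effect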
- PARTICULARS: Jurkat NFAT-bla M1, carbachol, beta-lactamase ratio, 5 h; at 17.2 µM (top of the series)
Results filed as inconclusive are left out.
OUTCOME MEASURE: activity change, negative = inhibition (%)
API: value field is a number in %; no unit string.

Prompt line: Item under review: C[C@@H]1c2cccc(O)c2C(O)=C2C(=O)[C@@]3(O)C(O)=C(C(N)=O)C(=O)[C@@H](N(C)C)[C@@H]3[C@@H](O)[C@@H]21 . Reported activity change, negative = inhibition?
Response line: -5.69

Prompt line: Item under review: O=C(C1CCCCC1)N1CC(=O)N2CCc3ccccc3[C@@H]2C1 . Reported activity change, negative = inhibition?
Response line: 3.18

Prompt line: Item under review: CCN(CC)CCC[C@H](C)Nc1ccnc2cc(Cl)ccc12 . Reported activity change, negative = inhibition?
Response line: -9.2

Prompt line: Item under review: CCCCCN(CCCCC)C(=O)[C@H](CCC(=O)O)NC(=O)c1ccc(Cl)c(Cl)c1 . Reported activity change, negative = inhibition?
Response line: -6.01

Prompt line: Item under review: C=CCc1ccccc1OC[C@H](O)CNC(C)C . Reported activity change, negative = inhibition?
Response line: -2.1

Prompt line: Item under review: COCCc1ccc(OC[C@H](O)CNC(C)C)cc1 . Reported activity change, negative = inhibition?
Response line: 1.88

Prompt line: Item under review: CO[C@]1(NC(=O)CSCC#N)C(=O)N2C(C(=O)O)=C(CSc3nnnn3C)CS[C@H]21 . Reported activity change, negative = inhibition?
Response line: -17.5

Prompt line: Item under review: C[C@@]12CCC(=O)C=C1CC[C@@H]1[C@@H]2[C@H](O)C[C@]2(C)[C@@H]1CC[C@]2(O)C(=O)CO . Reported activity change, negative = inhibition?
Response line: -9.51

Prompt line: Item under review: CC(=O)O[C@]1(C(C)=O)CC[C@@H]2[C@@H]3C=C(Cl)C4=CC(=O)[C@H]5C[C@@H]5[C@]4(C)[C@H]3CC[C@]21C . Reported activity change, negative = inhibition?
Response line: -18.6

Prompt line: Item under review: O=C(O)CNC(=O)[C@@H](CS)Cc1ccccc1 . Reported activity change, negative = inhibition?
Response line: 3.12

Prompt line: Item under review: CC(=O)OCC1=C(C(=O)O)N2C(=O)[C@@H](NC(=O)Cc3cccs3)[C@@H]2SC1 . Reported activity change, negative = inhibition?
Response line: -11.2

Prompt line: Item under review: CC(=O)OCC1=C(C(=O)O)N2C(=O)[C@@H](NC(=O)CSc3ccncc3)[C@@H]2SC1 . Reported activity change, negative = inhibition?
Response line: 7.12

Prompt line: Item under review: CC(C)(C)NC[C@H](O)c1cc(O)cc(O)c1 . Reported activity change, negative = inhibition?
Response line: -10.3

Prompt line: Item under review: C[C@@]12C[C@@H](O)[C@H]3[C@@H](CCC4=CC(=O)CC[C@]43C)[C@H]1CC[C@H]2C(=O)CO . Reported activity change, negative = inhibition?
Response line: 0.118

Prompt line: Item under review: CN1C(=O)CC[C@@H]1c1cccnc1 . Reported activity change, negative = inhibition?
Response line: 1.15

Prompt line: Item under review: CO/N=C(\C(=O)N[C@@H]1C(=O)N2C(C(=O)O)=C(COC(C)=O)CS[C@@H]12)c1csc(N)n1 . Reported activity change, negative = inhibition?
Response line: -7.64

Prompt line: Item under review: C[C@@](N)(Cc1ccc(O)c(O)c1)C(=O)O . Reported activity change, negative = inhibition?
Response line: -8.05

Prompt line: Item under review: CC(C)(Oc1ccc([C@@H]2CC2(Cl)Cl)cc1)C(=O)O . Reported activity change, negative = inhibition?
Response line: -16.8

Prompt line: Item under review: CC1=C(C(=O)O)N2C(=O)[C@@H](NC(=O)[C@@H](N)c3ccccc3)[C@@H]2SC1 . Reported activity change, negative = inhibition?
Response line: -9.84

----------
- METHOD: AP1 Signaling Pathway (AID 357);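 also: ME-180 reporter cells stimulated with EGF at its EC50 level; % is scaled to controls: 0 for no effect and ±100 for the full control effect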
- PARTICULARS: ME-180 AP-1-bla reporter, EGF-induced, beta-lactamase ratio, 5 h; at 7.69 µM (top of the series) unless noted
Records with an inconclusive call do not appear. Calls of active or inactive are those of the source. Calls come from the whole dose curve; as a rule, active = well fitted curve in either direction with a large enough effect (not every such curve was filed as active); inconclusive = small, poorly fitted or top-dose-only effect, or another doubt; inactive = flat fitted curve, though single readings scatter.
OUTCOME MEASURE: activity change, negative = inhibition

Prompt line: Item under review: O=C(c1cc(C(F)(F)F)cc(C(F)(F)F)c1)N1CCC2(CC1)CCN(c1ccccc1)CC2 . Reported activity change, negative = inhibition?
Response line: 24.2% (inactive)

Prompt line: Item under review: O=C(c1ccncc1)N1CCC[C@@]2(CCN(Cc3ccccc3)C2)C1 . Reported activity change, negative = inhibition?
Response line: 1% (inactive)

Prompt line: Item under review: Cc1ccccc1-c1cc(N2CCNCC2)ncn1 . Reported activity change, negative = inhibition?
Response line: 8.27% (inactive)

Prompt line: Item under review: CS(=O)(=O)N1CCC2(CC1)CN(Cc1ccc(C#N)cc1)C2 . Reported activity change, negative = inhibition?
Response line: -16.8% (inactive)

Prompt line: Item under review: Nc1nc2n[nH]nc2c(=O)[nH]1 . Reported activity change, negative = inhibition?
Response line: -1.23% [at 17.2 µM] (inactive)

----------
- METHOD: qHTS Assay for Lipid Storage Modulators (AID 1519); also: % is scaled to controls: 0 for no effect and ±100 for the full control effect
- PARTICULARS: Drosophila S3 cells, BODIPY lipid droplet/cell ratio, laser cytometry; at 57.5 µM (top of the series); cells loaded with oleic acid
Results filed as inconclusive are left out. Activity calls are given as the source filed them. Calls follow the shape of the full dose curve.
Provide the recorded activity change, negative = inhibition for the entries that follow.

Prompt line: Item under review: O=S(=O)(c1ccccc1)N1CCC2(CCN(c3ccc(-c4ccccc4)cc3)CC2)CC1 . Reported activity change, negative = inhibition?
Response line: 5.32% (inactive)

Prompt line: Item under review: COc1cccc(Cn2c(=O)cnc3cnc(N4CCN(C)CC4)nc32)c1 . Reported activity change, negative = inhibition?
Response line: 5.18% (inactive)

Prompt line: Item under review: CC(=O)N1CCC[C@@]2(CCN(C(=O)Nc3cccc(C#N)c3)C2)C1 . Reported activity change, negative = inhibition?
Response line: 2.15% (inactive)

Prompt line: Item under review: COc1ccc(C(=O)N2CCC3(CCN(Cc4ccccc4OC)CC3)CC2)cc1 . Reported activity change, negative = inhibition?
Response line: 2.01% (inactive)

Prompt line: Item under review: CC(=O)OC1CCC23CC1(C)CCC2C(C)(C)CC3OC(C)=O (stereo unspecified) . Reported activity change, negative = inhibition?
Response line: 2.71% (inactive)

Prompt line: Item under review: O=C(c1ccncc1)N1CCC[C@@]2(CCN(c3cccc(-c4ccccc4)c3)C2)C1 . Reported activity change, negative = inhibition?
Response line: 1.7% (inactive)

----------
- Tested on: P93_24
- METHOD: qHTS profiling for inhibitors of Plasmodium falciparum proliferation (AID 504749); also: nearly all actives have a fitted effect of over 60% in size
- PARTICULARS: P. falciparum in erythrocytes, SYBR Green DNA, 72 h; series mostly up to 12.8 µM
Inconclusive results are not listed. Calls of active or inactive are those of the source. Calls follow the shape of the dose curve; as a rule, active = well fitted inhibition curve with a large enough effect; inconclusive = small, poorly fitted or top-dose-only effect; inactive = flat fitted curve, though single readings scatter.
OUTCOME MEASURE: outcome

CC[C@]1(C)CC(=O)NC1=O    inactive
O=C(Cc1cccs1)NC1C(=O)N2C(C(=O)[O-])=C(C[n+]3ccccc3)CSC12 (stereo not drawn)    inactive
COc1ccccc1OC[C@H](O)COC(N)=O    inactive

----------
- Test system: CP247
- METHOD: qHTS profiling for inhibitors of Plasmodium falciparum proliferation (AID 504749); also: nearly all actives have a fitted effect of over 60% in size; also: potency is read from the fitted curve at half-maximal effect
- PARTICULARS: P. falciparum in erythrocytes, SYBR Green DNA, 72 h; series mostly up to 12.8 µM
Records with an inconclusive call do not appear. Active and inactive are the calls of the source. Calls follow the shape of the dose curve; as a rule, active = well fitted inhibition curve with a large enough effect; inconclusive = small, poorly fitted or top-dose-only effect; inactive = flat fitted curve, though single readings scatter.
OUTCOME MEASURE: Potency

Cc1cc(/C=C\c2ccc3cc(N(C)C)ccc3[n+]2C)c(C)n1-c1ccccc1    3.55 µM (active)
COc1ccccc1OC[C@H](O)COC(N)=O    inactive
CCN1C(=O)N[C@@H](c2ccccc2)C1=O    inactive
C[n+]1ccccc1/C=N\O    inactive
CC[C@@]12CCCN3CCc4c(n(c5ccccc45)C(=O)C1)[C@H]32    inactive

Now look at this one.
Prompt line: Item under review: CC(=O)OCC1=C(C(=O)O)N2C(=O)[C@@H](NC(=O)CSc3ccncc3)[C@@H]2SC1 . Reported Potency?
Response line: inactive

----------
- METHOD: Stat Signaling Pathway (AID 446);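 also: ME-180 cervical cancer cells given 40 pM IL-6 alongside compound; SIE-controlled beta-lactamase reporter measured as 460/530 nm FRET emission ratio; % is scaled to controls: 0 for no effect and ±100 for the full control effect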
- PARTICULARS: ME-180 (cervical carcinoma) SIE beta-lactamase reporter, IL-6 stimulated, 5 h; at 17.2 µM (top of the series)
Results filed as inconclusive are left out.
OUTCOME MEASURE: activity, negative = inhibition (%)
API: value field is a number in %; no unit string.

Prompt line: Item under review: C[C@@H](C(=O)O)c1cccc(C(=O)c2ccccc2)c1 . Reported activity, negative = inhibition?
Response line: 6.92

Prompt line: Item under review: CC1=C(C(=O)O)N2C(=O)[C@@H](NC(=O)[C@@H](N)c3ccccc3)[C@@H]2SC1 . Reported activity, negative = inhibition?
Response line: 10.2

Prompt line: Item under review: CCCN[C@@H](C)C(=O)Nc1ccccc1C . Reported activity, negative = inhibition?
Response line: -2.53

Prompt line: Item under review: C[C@@](N)(Cc1ccc(O)c(O)c1)C(=O)O . Reported activity, negative = inhibition?
Response line: 0.151

Prompt line: Item under review: CC(=O)O[C@@H](C)C[N+](C)(C)C . Reported activity, negative = inhibition?
Response line: -1.77

Prompt line: Item under review: CN1[C@@H](CC(=O)c2ccccc2)CCC[C@@H]1C[C@@H](O)c1ccccc1 . Reported activity, negative = inhibition?
Response line: 0.159
